Cited source: PubChem BioAssay (NCI)

# Tested on: SR leukemia
# procedure.text: NCI tumour cell line growth inhibition, 48 h
assay.readout: TGI

Examples with answers:
>>> data_value("COc1ccc(NC(=S)NNC(=O)c2cc(-c3ccccc3)nc3ccccc23)cc1")
"9.79 µM"
>>> data_value("Cc1cccc(O)c(=O)c1")
"80.6 µM"
>>> data_value("O=C(Nc1ccccc1C(=O)O)C(=O)C(C(=O)c1ccccc1-c1ccccc1)C1OC(=O)c2ccccc21 (configuration not stated)")
"71.1 µM"
>>> data_value("COc1ccc(C2NC(=O)Nc3c2c(=O)oc2c3ccc3ccccc32)cc1 (configuration not stated)")
"> 100 µM"
>>> data_value("CSC1NNC2(C(=O)N1)c1ccccc1-c1ccccc12 (configuration not stated)")
"> 10 µM"
>>> data_value("CC(=O)O[C@H](C[C@H](C(C)C)N(C)C(=O)[C@@H](NC(=O)[C@H]1CCCCN1C)C(C)(C)C)c1nc(C(=O)N[C@@H](Cc2ccccc2)C[C@H](C)C(=O)O)cs1")
"> 25 µM"
>>> data_value("O=C1C(=Cc2ccccc2[N+](=O)[O-])N=C(c2ccccc2)N1n1c(-c2ccccc2)nc2ccccc2c1=O")
"> 100 µM"
>>> data_value("CCCCN(CCCC)C(=O)C(=O)CC(=O)/C=C/c1ccccc1")
"> 100 µM"
>>> data_value("COc1cc(/C=C/c2cc(/C=C/c3ccc(O)c(OC)c3)[nH]c(=O)n2)ccc1O")
"6.18 µM"
>>> data_value("N#CC1CCc2c(c(-c3cn[nH]c3C(F)(F)F)nc3c(F)cc4[nH]ncc4c23)C1 (configuration not stated)")
"59.1 µM"

Please look at this molecule and report its TGI: CCCC(=O)Nc1cc(/C=C/C(=O)N2C[C@H]3C[C@@]34C2=CC(=O)c2[nH]cc(C)c24)n(C)c1
< 0.0025 µM

Please look at this molecule and report its TGI: CC(C)N(Cc1ccccc1)S(=O)(=O)c1n[nH]c(C(C)(C)C)n1
> 100 µM

Please look at this molecule and report its TGI: O=S(=O)(O)c1ccc(Nc2ccnc3cc(Cl)ccc23)cc1
> 100 µM

Please look at this molecule and report its TGI: NC(=S)N/N=C\c1nccc2c(C(F)(F)C(F)(F)C(F)(F)F)cccc12
> 32.4 µM

Please look at this molecule and report its TGI: CCN(CC)CCOc1nc2cc(OC)c(OC)cc2c2c1-c1ccc(OC)cc1C2=O
3.4 µM

Please look at this molecule and report its TGI: CC(C)(O)CCC(O)C(C)(O)C1CCC2(O)C3=CC(=O)C4(O)CC(O)C(O)CC4(C)C3CCC12C (configuration not stated) (tested in a mixture with another compound)
> 100 µM

Please look at this molecule and report its TGI: O=C(Nc1nc(C23CC4CC(CC(C4)C2)C3)cs1)c1cc2cc([N+](=O)[O-])ccc2oc1=O
> 100 µM
